Reference source: paper PMC11701221

- EXPERIMENTAL_TARGET: Mgal-WhiA (Mycoplasma gallisepticum S6, UniProt A0A0F6CKV5 1-295)
- TEST_NAME: EMSA; no ATP; monomer complex; EMSA: 20 mM carbonate pH 9.8, 6% glycerol, 37 C 10 min, gel at 10 C; MST: PBS (10 mM Na phosphate pH 7.4, 140 mM NaCl, 3 mM KCl), 0.05% Tween-20, 50 mM imidazole, 50 nM duplex, 20 C
- ASSAY_CONDITIONS: protein: recombinant; label: 5' FAM (EMSA) or HEX (MST) on strand 1; blunt
READOUT_LABEL: pKd
Just so you know, pKd here is -log10 of the concentration in molar units; reply with that number alone.

In: Suppose we examine the binder rpsJ WT (dsDNA) DNA 1: AAAGATTGCTGATACACCAAAAACCGTTGTCAAGTATCAG DNA 2: CTGATACTTGACAACGGTTTTTGGTGTATCAGCAATCTTT ; what pKd value has been reported?
Out: 6.21
